Here, each record is paired with measured human MASP2 IC50 data.
- Measured target: recombinant human MASP2 active protease (amino acids 297-686, C-terminal His Tag) (human, UniProt O00187 297-686)
- Sequence (O00187 other isoform, or with tags, fused parts or gaps limits assumed): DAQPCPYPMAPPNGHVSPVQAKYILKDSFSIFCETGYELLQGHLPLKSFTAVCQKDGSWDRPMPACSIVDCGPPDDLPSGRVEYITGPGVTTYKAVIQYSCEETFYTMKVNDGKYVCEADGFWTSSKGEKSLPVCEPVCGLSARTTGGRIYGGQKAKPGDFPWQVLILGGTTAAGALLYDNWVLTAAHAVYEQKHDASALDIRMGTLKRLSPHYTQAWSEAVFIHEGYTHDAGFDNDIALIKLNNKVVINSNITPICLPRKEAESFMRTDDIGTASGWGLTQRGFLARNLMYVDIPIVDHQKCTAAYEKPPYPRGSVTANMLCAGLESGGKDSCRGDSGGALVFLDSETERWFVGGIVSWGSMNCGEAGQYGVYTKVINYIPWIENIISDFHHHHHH
- Experimental details: cell-based or functional assay
Bridge positions count the residues as written; N and C are the ends. Square brackets hold non-standard residues; d marks the D form. Ends that are not written are not given here. Hyp = O=C(O)[C@@H]1C[C@@H](O)CN1; NMeC = CN[C@@H](CS)C(=O)O; Sar = CNCC(=O)O
Write the answer as a number in nM, unit excluded.

- Binder: "AICSRS[(2S)‑2‑Amino‑4,4,4‑trifluorobutanoic acid]PPI[NMeC]IPD-NH2 (disulfide 3-11) [Example 337: AIC+SRS-((2S)-2-Amino-4,4,4-trifluorobutanoic acid)-PPI-((N-Me)C)+IPD-NH2]"
  Unit of measurement: "nM"
  Recorded value: 2000
- Binder: "[Sar]ICSRSLPPICI[Sar]D-OH (disulfide 3-11; N-terminus assumed; SMILES CC[C@H](C)[C@H](NC(=O)CNC)C(=O)N[C@H]1CSSC[C@@H](C(=O)N[C@H](C(=O)N(C)CC(=O)N[C@@H](CC(=O)O)C(=O)O)[C@@H](C)CC)NC(=O)[C@H]([C@@H](C)CC)NC(=O)[C@@H]2CCCN2C(=O)[C@@H]2CCCN2C(=O)[C@H](CC(C)C)NC(=O)[C@H](CO)NC(=O)[C@H](CCCNC(=N)N)NC(=O)[C@H](CO)NC1=O) [Example 329: ((N-Me)G)-IC+SRSLPPIC+I-((N-Me)G)-D-OH]"
  Unit of measurement: "nM"
  Recorded value: 260

Proceed to the following item.
Q) Please look up its human MASP2 IC50: GICSRSL[Hyp]PICIPD-OH (disulfide 3-11; N-terminus assumed; SMILES CC[C@H](C)[C@H](NC(=O)CN)C(=O)N[C@H]1CSSC[C@@H](C(=O)N[C@H](C(=O)N2CCC[C@H]2C(=O)N[C@@H](CC(=O)O)C(=O)O)[C@@H](C)CC)NC(=O)[C@H]([C@@H](C)CC)NC(=O)[C@@H]2CCCN2C(=O)[C@@H]2C[C@@H](O)CN2C(=O)[C@H](CC(C)C)NC(=O)[C@H](CO)NC(=O)[C@H](CCCNC(=N)N)NC(=O)[C@H](CO)NC1=O) [Example 380: GIC+SRSL-(Hyp)-PIC+IPD-OH]
A) 810
